# PROTOCOL NOTES: RM-133 plasma and tumor concentration in nude mice after the xenograft experiment (second part), LC-MS/MS
# Format: in vivo, nu/nu nude mice
# PARTICULARS: nu/nu nude, mouse, plasma, sc, 60 mg/kg, single s.c. 60 mg/kg in 0.1 mL propylene glycol:EtOH (92:8), 24 h, nude mice

MOLECULE: C#C[C@]1(O)CC[C@H]2[C@@H]3CC[C@H]4C[C@H](O)[C@@H](N5CCN(C(=O)[C@@H]6CCCN6C(=O)c6ccc7ccccc7n6)CC5)C[C@]4(C)[C@H]3CC[C@@]21C [RM-133]
concentration at 24 h / ng/mL: 81

---

# PROTOCOL NOTES: Plasma concentration of RM-133 with different vehicles
# Format: in vivo, Balb/c mice
# PARTICULARS: female, Balb/c, mouse, sc, 120 mg/kg, vehicle #7 sesame oil (89.7%) EtOH (7.8%) benzyl benzoate (1%) benzyl alcohol (1%) Tween 80 (0.5%), single s.c. 120 mg/kg in 0.1 mL
QUANTITY KIND: concentration at 3 h

STRUCTURE NOTATION: C#C[C@]1(O)CC[C@H]2[C@@H]3CC[C@H]4C[C@H](O)[C@@H](N5CCN(C(=O)[C@@H]6CCCN6C(=O)c6ccc7ccccc7n6)CC5)C[C@]4(C)[C@H]3CC[C@@]21C
ENDPOINT RESULT: 302 ng/mL

---

# PROTOCOL NOTES: Plasma concentration of RM-133 with different vehicles
# Assay type: in vivo, Balb/c mice
# PARTICULARS: female, Balb/c, mouse, sc, 120 mg/kg, vehicle #4 sunflower oil (92%) EtOH (8%), single s.c. 120 mg/kg in 0.1 mL
QUANTITY KIND: concentration at 12 h (ng/mL)

STRUCTURE NOTATION: C#C[C@]1(O)CC[C@H]2[C@@H]3CC[C@H]4C[C@H](O)[C@@H](N5CCN(C(=O)[C@@H]6CCCN6C(=O)c6ccc7ccccc7n6)CC5)C[C@]4(C)[C@H]3CC[C@@]21C
QUANTITY KIND: concentration at 12 h
ENDPOINT RESULT: 173

---

# PROTOCOL NOTES: Plasma concentration of RM-133 with different vehicles
# Type: in vivo, Balb/c mice
# PARTICULARS: female, Balb/c, mouse, sc, 120 mg/kg, vehicle #8 soya oil (92%) EtOH (8%), single s.c. 120 mg/kg in 0.1 mL
QUANTITY KIND: concentration at 12 h (ng/mL)

STRUCTURE NOTATION: C#C[C@]1(O)CC[C@H]2[C@@H]3CC[C@H]4C[C@H](O)[C@@H](N5CCN(C(=O)[C@@H]6CCCN6C(=O)c6ccc7ccccc7n6)CC5)C[C@]4(C)[C@H]3CC[C@@]21C
QUANTITY KIND: concentration at 12 h
ENDPOINT RESULT: 52

---

# PROTOCOL NOTES: Plasma concentration of RM-133 with different vehicles
# Assay type: in vivo, Balb/c mice
# PARTICULARS: female, Balb/c, mouse, sc, 120 mg/kg, vehicle #5 sunflower oil (92%) tetrahydrofuran (8%), single s.c. 120 mg/kg in 0.1 mL
QUANTITY KIND: concentration at 12 h (ng/mL)

COMPOUND: C#C[C@]1(O)CC[C@H]2[C@@H]3CC[C@H]4C[C@H](O)[C@@H](N5CCN(C(=O)[C@@H]6CCCN6C(=O)c6ccc7ccccc7n6)CC5)C[C@]4(C)[C@H]3CC[C@@]21C [RM-133]
UNITS LABEL: ng/mL
ENDPOINT RESULT: 374
